- tested system: recombinant human OX40 (Acro Biosystems, cat. no. OXO-H5224) (human) (UniProt P43489)
- Sequence (P43489 29-216 limits assumed): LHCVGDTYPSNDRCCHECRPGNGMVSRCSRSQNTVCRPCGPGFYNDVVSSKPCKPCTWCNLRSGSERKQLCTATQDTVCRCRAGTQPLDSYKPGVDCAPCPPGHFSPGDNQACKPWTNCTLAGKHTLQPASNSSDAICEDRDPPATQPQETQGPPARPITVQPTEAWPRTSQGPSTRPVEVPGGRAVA
- assay procedure: BLI, Ab on AHC sensor, OX40 analyte
koff values by entry
Write it as a number; the unit s⁻¹ goes unstated.

Below are worked cases with known answers.
IgG1-CD134-ABBV368 (antibody, INN chains, looked up, V domains shown, IgG1) VH: EVQLVESGGGLVQPGGSLRLSCAASGFTFSRYGMSWVRQAPGKGLELVATINSNGGRTYYPDSVKGRFTISRDNAKNSLYLQMNSLRAEDTAVYYCAREGITTAYAMDYWGQGTTVTVSS VL: DIVMTQSPDSLAVSLGERATINCKASQSVDYDGDSYMHWYQQKPGQPPKLLIYAASILESGVPDRFSGSGSGTDFTLTISSLQAEDVAVYYCQQSNEDPRTFGGGTKVEIK	0.017
IgG1-CD134-MEDI0562 (antibody, INN chains, looked up, V domains shown, IgG1) VH: QVQLQESGPGLVKPSQTLSLTCAVYGGSFSSGYWNWIRKHPGKGLEYIGYISYNGITYHNPSLKSRITINRDTSKNQYSLQLNSVTPEDTAVYYCARYKYDYDGGHAMDYWGQGTLVTVSS VL: DIQMTQSPSSLSASVGDRVTITCRASQDISNYLNWYQQKPGKAPKLLIYYTSKLHSGVPSRFSGSGSGTDYTLTISSLQPEDFATYYCQQGSALPWTFGQGTKVEIK	0.0022

Switching to the query record.
Endpoint output: koff of IgG1-CD134-RG7888 (antibody, INN chains, looked up, V domains shown, IgG1) VH: EVQLVQSGAEVKKPGASVKVSCKASGYTFTDSYMSWVRQAPGQGLEWIGDMYPDNGDSSYNQKFRERVTITRDTSTSTAYLELSSLRSEDTAVYYCVLAPRWYFSVWGQGTLVTVSS VL: DIQMTQSPSSLSASVGDRVTITCRASQDISNYLNWYQQKPGKAPKLLIYYTSRLRSGVPSRFSGSGSGTDFTLTISSLQPEDFATYYCQQGHTLPPTFGQGTKVEIK . Value?
8.4e-05
